# reported GI50; entries follow
System: HCC 2998
Assay: NCI tumour cell line growth inhibition, 48 h
The source made the active and inactive calls. No stated cut-off is given here; in the data, active = GI50 up to about 1.1 µM and inactive = higher.

Completed entries (count: 6):
{"Compound": "N#Cc1sc2c(c1OC(=O)c1ccc(Cl)cc1)c(=O)n(-c1ccccc1)c(=S)n2-c1ccccc1", "Value": "21.5 µM (inactive)"}
{"Compound": "CN1CN(c2ccccc2)C2(CCN(CCCC(=O)c3cccs3)CC2)C1=O", "Value": "19.5 µM (inactive)"}
{"Compound": "C/C(=N\\NS(=O)(=O)c1ccc(C)cc1)c1ccc[n+]([O-])n1", "Value": "> 100 µM (inactive)"}
{"Compound": "CN(C)/N=C(/c1nc2ccc(Cl)cc2nc1O)C(O)c1ccc(C(O)/C(=N\\N(C)C)c2nc3ccc(Cl)cc3nc2O)cc1 (centres undefined)", "Value": "> 100 µM (inactive)"}
{"Compound": "CCOC(=O)c1ccc(C(=O)n2ccnc2)[nH]1", "Value": "> 100 µM (inactive)"}
{"Compound": "CN(C)Cc1cc(/N=N/c2ccc(Cl)cc2)ccc1OC(=O)c1ccccc1", "Value": "15.3 µM (inactive)"}

Exam item: I'd like to know its GI50. The compound in question is `CCN(CC)CCOc1ccc(N2C(=O)c3cccc4cc([N+](=O)[O-])cc(c34)C2=O)cc1`
Marked response: 11.6 µM (inactive)

Exam item: Then what about the compound CC1=NN(c2cccc(Cl)c2)C2(C1)C(Cl)C(=O)N2c1nc2ccccc2s1 (centres undefined) ?
Marked response: 55.1 µM (inactive)
